src = a melting point compilation (Tetko et al.)

Below, each entry is listed with its recorded melting point.

For orientation, consider the following solved cases.
- CCOc1c(Br)cc(C(=O)O)cc1OC: 140 to 142 °C
- Nc1cc(-c2cccc([N+](=O)[O-])c2)n[nH]1: 137 to 139 °C

Q: Consider the compound O=C(O)CCSc1ccccc1F and give its measured melting point.
Result: 118 to 120 °C

Q: Same question, CC(=O)c1cc2cc(C)c(C)cc2o1 this time
Result: 89 to 91 °C

Q: Same question, Cc1csc(Sc2c(N)cccc2Cl)n1 this time
Result: 132 to 134 °C

Q: Same question, O=C(Cc1ccccc1Cl)NCCCO this time
Result: 77 to 79 °C

Q: Same question, O=C(O)CCNS(=O)(=O)c1ccccc1 this time
Result: 110 to 114 °C

Q: Same question, Fc1ccc(-c2nnc(CCl)o2)cc1 this time
Result: 138 to 140 °C

Q: Same question, CNc1cc(Cl)cc(CO)c1 this time
Result: 49 to 51 °C

Q: Same question, CC(=O)N(C)c1ccccc1C(=O)O this time
Result: 196 to 198 °C

Q: Same question, Cc1cccc(NC(=O)Nc2cccc3c2NCCC3)c1 this time
Result: 168 to 170 °C

Q: Same question, Clc1ccc2nc(-c3ccccn3)[nH]c2c1 this time
Result: 133 to 135 °C

Q: Same question, Cc1cn2cccnc2n1 this time
Result: 97 to 99 °C
